assay: inhibitors of hydroxyurea-induced Chk1 phosphorylation, primary screen, imaging, HeLa, phospho-Chk1 nuclear intensity (AID 1187); settings: hydroxyurea-induced phospho-Chk1 immunofluorescence imaging, higher = more signal; also: test concentration not given here
assay.readout: z-score
Answer with a bare number; do not write a unit.

Exam item: Any idea what z-score was measured for "COc1ccc([Si](C)(C)[C@H]2[C@H](CCO)O[C@@]3(C(=O)N(Cc4ccccc4)c4ccc(N5CCOC5=O)cc43)[C@@H]2C)cc1" ?
Marked response: -0.721

Exam item: Any idea what z-score was measured for O=C1C2C=CC(C(O)c3cc(C(F)(F)F)cc(C(F)(F)F)c3)N(Nc3ccccc3F)C2C(=O)N1c1ccccc1 (stereo unspecified) ?
Marked response: 0.544

Exam item: Any idea what z-score was measured for "C=C(CCCC)C(=O)CC[C@H](OC(C)=O)c1ccc(OCCO)cc1" ?
Marked response: -0.523

Exam item: Any idea what z-score was measured for "COC(=O)[C@@]1(Cc2ccccc2)[C@H]2c3cc(C(=O)N4CCCC4)n(CCSCCO)c3C[C@H]2CN1C(=O)c1ccccc1" ?
Marked response: 0.501

Exam item: Any idea what z-score was measured for "CC(C)C(=C=CC[C@@H](O)c1cccc(OCCO)c1)C[C@@H](O)c1ccccn1" ?
Marked response: 0.156

Exam item: Any idea what z-score was measured for "C=CC[C@H](OC(=O)Nc1ccc(SC)cc1)c1ccc(OCCO)cc1" ?
Marked response: 1.03

Ref: PubChem BioAssay
